Observed pIC50, system Cyclin-dependent kinase 5/CDK5 activator 1 (Homo sapiens, UniProt Q00535).
API: returns pIC50 as number; meaning -log10 of concentration in mol/L.

// solved cases for pIC50 follow
CC(=O)Nc1sc2c(c1Cc1nnc(SCC(=O)NNC(=O)c3ccccc3)n1NC(=O)c1ccc(Cl)cc1)CCCC2 :: 6.28
O=C(Nc1sc2c(c1Cc1nnc(S)n1NC(=O)c1ccccc1)CCCC2)c1ccccc1 :: 6.05
CC(=O)Nn1c(Cc2c(NCCC(=O)O)sc3c2CCCC3)nnc1SCC(=O)N/N=C/c1ccccc1 :: 6.27

Param item: `O=C(CSc1nnc(Cc2c(NC(=O)CCl)sc3c2CCCC3)n1NC(=O)c1ccc(Cl)cc1)N/N=C/c1ccccc1` ; param system: Cyclin-dependent kinase 5/CDK5 activator 1 (Homo sapiens, UniProt Q00535); output pIC50: 7.46

Param item: `O=C(CCl)Nc1sc2c(c1Cc1nnc(SCSc3nnc(Cc4c(NC(=O)CCl)sc5c4CCCC5)n3NC(=O)c3ccccc3)n1NC(=O)c1ccccc1)CCCC2` ; param system: Cyclin-dependent kinase 5/CDK5 activator 1 (Homo sapiens, UniProt Q00535); output pIC50: 6.17

Param item: `CC(=O)Nc1sc2c(c1Cc1nnc(SCC(=O)NNC(=O)CCl)n1NC(=O)c1ccccc1)CCCC2` ; param system: Cyclin-dependent kinase 5/CDK5 activator 1 (Homo sapiens, UniProt Q00535); output pIC50: 6.19

Param item: `O=C(O)CCNc1sc2c(c1Cc1nnc(SCC(=O)NNC(=O)CCl)n1NC(=O)c1ccccc1)CCCC2` ; param system: Cyclin-dependent kinase 5/CDK5 activator 1 (Homo sapiens, UniProt Q00535); output pIC50: 6.44

Param item: `Nn1c(S)nnc1Cc1c(NC(=O)c2ccccc2)sc2c1CCCC2` ; param system: Cyclin-dependent kinase 5/CDK5 activator 1 (Homo sapiens, UniProt Q00535); output pIC50: 6.21

Origin of the recorded values: ChEMBL document CHEMBL1795325
